Test: Inhibition of recombinant NDM1 (unknown origin) expressed in Escherichia coli (DE3) cells using FC5 as substrate by microplate reader assay
pIC50: −log10 of the molar value.
observable: pIC50

Answered examples (5):
COc1cccc(-c2cn(-c3cccc(CP(=O)(O)O)c3)nn2)c1 : 4.22
Nc1cccc(-c2cn(-c3cccc(C(c4ccc(F)cc4)P(=O)(O)O)c3)nn2)c1 (configuration not stated) : 5.70
O=P(O)(O)Cc1cccc(-n2cc(-c3ccccc3F)nn2)c1 : 4.59
O=C(NCc1cccc(-c2cn(-c3cccc(CP(=O)(O)O)c3)nn2)c1)C(F)(F)F : 4.23
Nc1cccc(-c2cn(-c3cccc(C(c4ccc(Cl)cc4)P(=O)(O)O)c3)nn2)c1 (configuration not stated) : 6.17

a: O=P(O)(O)Cc1ccccc1-n1cc(CNc2ccccc2)nn1
b: O=P(O)(O)Cc1cccc(-n2cc(-c3cccc(F)c3)nn2)c1
-- ask I'm curious whether a or b has the smaller pIC50 number. Which is it? Field: selected label. Fill in the label of the entry you choose.
-- reply a
(a: 4.08, b: 4.46)
